System: P. falciparum 3D7
Assay: Antiplasmodial activity (IC50), SYBR Green fluorescence, 48 hours
Assay type: cell-based, Plasmodium falciparum
Settings: Plasmodium falciparum, 3D7, 48 h, Supplementary Table 7, benzoylacetonitrile derivatives
pIC50: −log10 of the molar value.
# maps each entry to its pIC50

Here are 4 compounds together with their reported answers.
smiles input | tested target | readout | obs value
N#CCC(=O)c1cc(C(F)(F)F)cc(C(F)(F)F)c1 | P. falciparum 3D7 | pIC50 | < 3.51
N#CCC(=O)c1cncc(Br)c1 | P. falciparum 3D7 | pIC50 | 3.27
N#CCC(=O)c1cccc(Cl)c1 | P. falciparum 3D7 | pIC50 | < 3.51
Cc1cccc(C(=O)CC#N)c1 | P. falciparum 3D7 | pIC50 | < 3.51

Switching to the query record.
Query string: # input compound: N#CCC(=O)c1cccc(F)c1 ; wanted: its pIC50
Result string: < 3.51

----------
Molecular target: recombinant PfUCK (P. falciparum UMP-CMP kinase, PfUCK-Δ23) (Plasmodium falciparum, UniProt Q8I231)
Sequence (Q8I231 entry or part of it, stated change not applied): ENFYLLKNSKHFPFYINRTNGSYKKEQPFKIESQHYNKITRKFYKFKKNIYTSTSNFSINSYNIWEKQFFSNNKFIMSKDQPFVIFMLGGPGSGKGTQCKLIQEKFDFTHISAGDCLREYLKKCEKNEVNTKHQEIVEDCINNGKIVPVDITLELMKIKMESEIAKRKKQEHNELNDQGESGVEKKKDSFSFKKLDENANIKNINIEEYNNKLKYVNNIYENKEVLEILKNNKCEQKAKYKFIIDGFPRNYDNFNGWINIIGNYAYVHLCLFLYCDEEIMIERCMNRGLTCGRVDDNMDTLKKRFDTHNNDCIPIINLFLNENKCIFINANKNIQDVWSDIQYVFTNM
Assay: Inhibition constant (Ki) determination, coupled PK/LDH NADH assay, recombinant PfUCK
Type: biochemical
Conditions: Table 4, benzoylacetonitrile derivatives; 1 mM CMP, competitive equation

smiles input | Ki—PfUCK
Cc1cccc(C(=O)CC#N)c1 | No inhibition at 1 mM
N#CCC(=O)c1cccc([N+](=O)[O-])c1 | No inhibition at 1 mM
N#CCC(=O)c1ccc(Cl)cc1 | No inhibition at 1 mM

----------
# maps each entry to its flux 6 - 18 hps
Test system: synchronised Plasmodium falciparum 3D7 cultures
Assay: In vitro flux measurements of glucose and amino acids in spent media
Assay type: cell-based
Details: early to mid-ring stage; ± SD; positive = into infected red blood cell, negative = efflux into media
Answer in mmol/gDW/hr, number only, no unit symbol.

Here are 5 compounds together with their reported answers.
compound | units text | flux 6 - 18 hps
N[C@@H](Cc1c[nH]cn1)C(=O)O | mmol/gDW/hr | -0.0073
CC(C)[C@H](N)C(=O)O | mmol/gDW/hr | -0.036
NC(=O)C[C@H](N)C(=O)O | mmol/gDW/hr | -0.0094
NC(=O)CC[C@H](N)C(=O)O | mmol/gDW/hr | 0.00
N[C@@H](Cc1ccccc1)C(=O)O | mmol/gDW/hr | -0.0099

Query string: # input compound: N[C@@H](CCC(=O)O)C(=O)O ; wanted: its flux 6 - 18 hps
Result string: -0.019

Query string: # input compound: CC(C)C[C@H](N)C(=O)O ; wanted: its flux 6 - 18 hps
Result string: 0.28

Query string: # input compound: N[C@@H](Cc1c[nH]c2ccccc12)C(=O)O ; wanted: its flux 6 - 18 hps
Result string: 0.0026

Query string: # input compound: OC[C@H]1OC(O)[C@H](O)[C@@H](O)[C@@H]1O (stereo partly drawn) ; wanted: its flux 6 - 18 hps
Result string: 1.3

----------
Tested on: synchronised Plasmodium falciparum 3D7 cultures
Assay: In vitro flux measurements of glucose and amino acids in spent media
Type: cell-based
Settings: late trophozoite stage; ± SD; positive = into infected red blood cell, negative = efflux into media
Output Fulfilled for flux 30 - 36 hps not less than -0.07 mmol/gDW/hr; output Not fulfilled otherwise.

A selection of reference data follows.
smiles input | tested target | discrete label
CSCC[C@H](N)C(=O)O | synchronised Plasmodium falciparum 3D7 cultures | Fulfilled
N[C@@H](Cc1ccc(O)cc1)C(=O)O | synchronised Plasmodium falciparum 3D7 cultures | Fulfilled

Query string: Item N[C@@H](Cc1c[nH]cn1)C(=O)O with flux 30 - 36 hps of -0.07 mmol/gDW/hr or above?
Result string: Fulfilled

Query string: Item CC(C)C[C@H](N)C(=O)O with flux 30 - 36 hps of -0.07 mmol/gDW/hr or above?
Result string: Not fulfilled

Query string: Item N[C@@H](CCC(=O)O)C(=O)O with flux 30 - 36 hps of -0.07 mmol/gDW/hr or above?
Result string: Fulfilled

Query string: Item NC(=O)CC[C@H](N)C(=O)O with flux 30 - 36 hps of -0.07 mmol/gDW/hr or above?
Result string: Not fulfilled
